Test: cytotoxicity assay (percent viability of HEp-2 cells, Cell Titer-Glo)
Details: human, HEp-2 cells
outcome measure: CC50 at 6 days

compound | observed
CC(=O)Nc1cc(C(=O)CSc2nc3ccccc3n2C)ccc1O | > 50 µM
Cc1noc(C)c1S(=O)(=O)N1CCN(Cc2ccccc2C#N)CC1 | > 50 µM
COc1ccc(NC(=O)c2ccc(C)c(S(=O)(=O)Nc3ccccc3C)c2)cc1OC | > 25 µg/mL
Cc1ccc2nc(SCCC#N)nc(C)c2c1 | > 25 µg/mL
OCc1cccc2c(Br)cccc12 | > 50 µM
C=CCn1c(SC(C)C(=O)Nc2cc(C(F)(F)F)ccc2Cl)nnc1-c1ccccc1OC (stereo not drawn) | > 50 µM
COC(=O)C1=C(C)N(Cc2ccccc2)C(=O)NC1c1ccc(OC)c(OC)c1 (stereo not drawn) | > 25 µg/mL
CC(=O)c1ccc2c3c(ccc(O)c13)CC2 | > 25 µg/mL
Cc1cc(C)cc(OCC(=O)N2CCc3ccccc3C2)c1 | > 25 µg/mL
CCOc1ccc(NC(=O)CSC2=C(C#N)C(c3ccncc3)C(C(=O)Nc3ccccc3)=C(C)N2)cc1 (stereo not drawn) | > 25 µg/mL
COc1ccc(-c2nc3ccccc3s2)cc1O | > 25 µg/mL
COc1cc([N+](=O)[O-])ccc1NC(=O)C1CC(Cl)=CCC1C(=O)O (stereo not drawn) | > 25 µg/mL
Cc1ccccc1C(=O)N1CCCN(C(=O)c2ccccc2C)CC1 | > 25 µg/mL
CSc1ccc(Cl)c(C(=O)Nc2ccc(Cc3ccccn3)cc2)c1 | > 25 µg/mL
O=C(c1cc(Cl)ccc1Cl)N1CCCN(C(=O)c2cc(Cl)ccc2Cl)CC1 | > 25 µg/mL
O=C(Nc1cccc(C(F)(F)F)c1)c1ccccc1Cl | > 25 µg/mL
CC(=O)Nc1nc(N)nc2ccc(CNc3ccc(C(=O)N[C@H](CCC(=O)O)C(=O)O)cc3)nc12 | > 50 µM
Cc1ccc2c(ccc3nc(C)ccc32)n1 | > 25 µg/mL
Cc1cc(C)cc(C(=O)Nc2ccc(C#N)cc2)c1 | > 25 µg/mL
Cc1cc(C)cc(OCC(O)CNC(C)c2ccccc2)c1 (stereo not drawn) | > 25 µg/mL
CC1=CC(C)(C)Nc2ccc(OC(=O)C(Cc3ccccc3)N3C(=O)C4CCCCC4C3=O)cc21 (stereo not drawn) | > 25 µg/mL
Fc1cnc(N2CCOCC2)nc1N1CCc2ccccc21 | > 25 µg/mL
CCOc1ccc(Nc2nc3cc(S(=O)(=O)N(CC)CC)ccc3o2)cc1 | > 50 µM
COc1ccc(-c2cc(C(=O)O)c3cc(Br)ccc3n2)c(OC)c1 | > 25 µg/mL
O=C(CCc1ccccc1)Nc1sc2c(c1C(=O)O)CCC2 | > 50 µM
COc1ccc(-n2nnnc2SCCO)cc1 | > 25 µg/mL
COc1ccc(C(=O)NCCc2cccc(Cl)c2)c(OC)c1 | > 25 µg/mL
Cc1nn(-c2ccccc2)c(C)c1C(=O)C(=O)Nc1cccc(Cl)c1 | > 50 µM
CCOc1ccccc1OCCOCCOc1cccc2cccnc12 | > 25 µg/mL
CCC(=O)Nc1ccc(-c2csc(N)n2)cc1 | > 25 µg/mL
Cc1ccc(S(=O)(=O)NC2CCCC(C(=O)Oc3ccc4c(c3)oc(=O)c3ccccc34)C2)cc1 (stereo not drawn) | > 25 µg/mL
O=C(Nc1cccc(NC(=O)C23CC4CC(CC(C4)C2)C3)c1)c1ccccc1F | > 25 µg/mL
COc1ccc2cc(Br)ccc2c1CO | > 25 µg/mL
CCOc1ccccc1-c1cc(C(=O)O)c2cc(Br)ccc2n1 | > 25 µg/mL
C=CCN(CC=C)C(=O)c1ccc(OC)c(I)c1 | > 25 µg/mL
C=CCNc1cc(N2CCN(C(=O)c3ccc(C)cc3)CC2)ccc1[N+](=O)[O-] | > 25 µg/mL
O=C(c1cccc(OC(F)F)c1)N1CCc2cc([N+](=O)[O-])ccc21 | > 50 µM
O=c1[nH]c(=O)n(Cc2ccc([N+](=O)[O-])cc2)cc1F | > 50 µM
CC(=O)c1cccc(NC(=S)NNC(=S)Nc2ccc(F)cc2F)c1 | > 25 µg/mL
